B1: Syntaxin-binding protein 4, residues 493 to 538; numbered along this chain, Q6ZWJ1 (parent)
chain: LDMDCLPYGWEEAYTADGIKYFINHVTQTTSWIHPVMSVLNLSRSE

variants of: B1; experiment: abundance fitness (aPCA) (normalised: wild type 0, dead -1); higher = more abundant; growth selection in yeast, the domain comes from the species named; settings: Homo sapiens
property.label: abundance fitness
I'd appreciate a reply containing only the number, no unit.

// known answers, use as guide
S38I | -0.845
K20D | -0.743
V39P | 1.03
S38Y | -0.376
T15N | -0.806
N41T | -0.23
L6I | -0.965
N24M | -0.978

Qu. Need abundance fitness of L42W , thanks.
Ans. -0.292

Qu. Okay, and T29N ?
Ans. -0.759

Qu. Okay, and W10D ?
Ans. -0.68
